- ASSAY_CONTEXT: in isopropanol, 298.15 K
ENDPOINT_LABEL: solubility (mole fraction)
Keep the answer to the number alone.

Qu. Report measured solubility (mole fraction); entry is `O=C(Nc1ccc(F)cc1F)c1cccnc1Oc1cccc(C(F)(F)F)c1`
Ans. 0.000292

* * *

- ASSAY_CONTEXT: in ethyl acetate, 278.15 K
ENDPOINT_LABEL: solubility (mole fraction)
Keep the answer to the number alone.

Qu. Report measured solubility (mole fraction); entry is `O=C(Nc1ccc(F)cc1F)c1cccnc1Oc1cccc(C(F)(F)F)c1`
Ans. 0.0105

* * *

- ASSAY_CONTEXT: in methanol, 308.15 K
ENDPOINT_LABEL: solubility (mole fraction)
Keep the answer to the number alone.

Qu. Report measured solubility (mole fraction); entry is `O=C(Nc1ccc(F)cc1F)c1cccnc1Oc1cccc(C(F)(F)F)c1`
Ans. 0.000999

* * *

- ASSAY_CONTEXT: in ethanol, 303.15 K
ENDPOINT_LABEL: solubility (mole fraction)
Keep the answer to the number alone.

Qu. Report measured solubility (mole fraction); entry is `O=C(Nc1ccc(F)cc1F)c1cccnc1Oc1cccc(C(F)(F)F)c1`
Ans. 0.000894

* * *

- ASSAY_CONTEXT: in water, 293.15 K
ENDPOINT_LABEL: solubility (mole fraction)
Keep the answer to the number alone.

Qu. Report measured solubility (mole fraction); entry is `O=C(Nc1ccc(F)cc1F)c1cccnc1Oc1cccc(C(F)(F)F)c1`
Ans. 3.15e-07

* * *

- ASSAY_CONTEXT: in isopropanol, 323.15 K
ENDPOINT_LABEL: solubility (mole fraction)
Keep the answer to the number alone.

Qu. Report measured solubility (mole fraction); entry is `O=C(Nc1ccc(F)cc1F)c1cccnc1Oc1cccc(C(F)(F)F)c1`
Ans. 0.00232

* * *

- ASSAY_CONTEXT: in ethanol, 308.15 K
ENDPOINT_LABEL: solubility (mole fraction)
Keep the answer to the number alone.

Qu. Report measured solubility (mole fraction); entry is `O=C(Nc1ccc(F)cc1F)c1cccnc1Oc1cccc(C(F)(F)F)c1`
Ans. 0.00113

* * *

- ASSAY_CONTEXT: in ethyl acetate, 308.15 K
ENDPOINT_LABEL: solubility (mole fraction)
Keep the answer to the number alone.

Qu. Report measured solubility (mole fraction); entry is `O=C(Nc1ccc(F)cc1F)c1cccnc1Oc1cccc(C(F)(F)F)c1`
Ans. 0.0281

* * *

- ASSAY_CONTEXT: in water, 283.15 K
ENDPOINT_LABEL: solubility (mole fraction)
Keep the answer to the number alone.

Qu. Report measured solubility (mole fraction); entry is `O=C(Nc1ccc(F)cc1F)c1cccnc1Oc1cccc(C(F)(F)F)c1`
Ans. 2e-07

* * *

- ASSAY_CONTEXT: in ethanol, 293.15 K
ENDPOINT_LABEL: solubility (mole fraction)
Keep the answer to the number alone.

Qu. Report measured solubility (mole fraction); entry is `O=C(Nc1ccc(F)cc1F)c1cccnc1Oc1cccc(C(F)(F)F)c1`
Ans. 0.00055

* * *

- ASSAY_CONTEXT: in methanol, 313.15 K
ENDPOINT_LABEL: solubility (mole fraction)
Keep the answer to the number alone.

Qu. Report measured solubility (mole fraction); entry is `O=C(Nc1ccc(F)cc1F)c1cccnc1Oc1cccc(C(F)(F)F)c1`
Ans. 0.00125

* * *

- ASSAY_CONTEXT: in isopropanol, 318.15 K
ENDPOINT_LABEL: solubility (mole fraction)
Keep the answer to the number alone.

Qu. Report measured solubility (mole fraction); entry is `O=C(Nc1ccc(F)cc1F)c1cccnc1Oc1cccc(C(F)(F)F)c1`
Ans. 0.00158

* * *

- ASSAY_CONTEXT: in ethyl acetate, 293.15 K
ENDPOINT_LABEL: solubility (mole fraction)
Keep the answer to the number alone.

Qu. Report measured solubility (mole fraction); entry is `O=C(Nc1ccc(F)cc1F)c1cccnc1Oc1cccc(C(F)(F)F)c1`
Ans. 0.0176

* * *

- ASSAY_CONTEXT: in isopropanol, 278.15 K
ENDPOINT_LABEL: solubility (mole fraction)
Keep the answer to the number alone.

Qu. Report measured solubility (mole fraction); entry is `O=C(Nc1ccc(F)cc1F)c1cccnc1Oc1cccc(C(F)(F)F)c1`
Ans. 4.4e-05

* * *

- ASSAY_CONTEXT: in water, 323.15 K
ENDPOINT_LABEL: solubility (mole fraction)
Keep the answer to the number alone.

Qu. Report measured solubility (mole fraction); entry is `O=C(Nc1ccc(F)cc1F)c1cccnc1Oc1cccc(C(F)(F)F)c1`
Ans. 1.07e-06

* * *

- ASSAY_CONTEXT: in isopropanol, 283.15 K
ENDPOINT_LABEL: solubility (mole fraction)
Keep the answer to the number alone.

Qu. Report measured solubility (mole fraction); entry is `O=C(Nc1ccc(F)cc1F)c1cccnc1Oc1cccc(C(F)(F)F)c1`
Ans. 7.09e-05

* * *

- ASSAY_CONTEXT: in isopropanol, 308.15 K
ENDPOINT_LABEL: solubility (mole fraction)

Qu. Report measured solubility (mole fraction); entry is `O=C(Nc1ccc(F)cc1F)c1cccnc1Oc1cccc(C(F)(F)F)c1`
Ans. 0.00069

* * *

- ASSAY_CONTEXT: in water, 298.15 K
ENDPOINT_LABEL: solubility (mole fraction)
Keep the answer to the number alone.

Qu. Report measured solubility (mole fraction); entry is `O=C(Nc1ccc(F)cc1F)c1cccnc1Oc1cccc(C(F)(F)F)c1`
Ans. 3.93e-07

* * *

- ASSAY_CONTEXT: in water, 288.15 K
ENDPOINT_LABEL: solubility (mole fraction)
Keep the answer to the number alone.

Qu. Report measured solubility (mole fraction); entry is `O=C(Nc1ccc(F)cc1F)c1cccnc1Oc1cccc(C(F)(F)F)c1`
Ans. 2.53e-07

* * *

- ASSAY_CONTEXT: in ethyl acetate, 288.15 K
ENDPOINT_LABEL: solubility (mole fraction)

Qu. Report measured solubility (mole fraction); entry is `O=C(Nc1ccc(F)cc1F)c1cccnc1Oc1cccc(C(F)(F)F)c1`
Ans. 0.015

* * *

- ASSAY_CONTEXT: in methanol, 288.15 K
ENDPOINT_LABEL: solubility (mole fraction)

Qu. Report measured solubility (mole fraction); entry is `O=C(Nc1ccc(F)cc1F)c1cccnc1Oc1cccc(C(F)(F)F)c1`
Ans. 0.000385

* * *

- ASSAY_CONTEXT: in water, 303.15 K
ENDPOINT_LABEL: solubility (mole fraction)
Keep the answer to the number alone.

Qu. Report measured solubility (mole fraction); entry is `O=C(Nc1ccc(F)cc1F)c1cccnc1Oc1cccc(C(F)(F)F)c1`
Ans. 4.84e-07

* * *

- ASSAY_CONTEXT: in ethyl acetate, 313.15 K
ENDPOINT_LABEL: solubility (mole fraction)

Qu. Report measured solubility (mole fraction); entry is `O=C(Nc1ccc(F)cc1F)c1cccnc1Oc1cccc(C(F)(F)F)c1`
Ans. 0.0322
